Test Target: nAChR formed by the α7 subunit (3H-α-bungarotoxin binding, cerebral cortex homogenate) (Rattus norvegicus, UniProt Q05941)
Sequence (Q05941 23-502): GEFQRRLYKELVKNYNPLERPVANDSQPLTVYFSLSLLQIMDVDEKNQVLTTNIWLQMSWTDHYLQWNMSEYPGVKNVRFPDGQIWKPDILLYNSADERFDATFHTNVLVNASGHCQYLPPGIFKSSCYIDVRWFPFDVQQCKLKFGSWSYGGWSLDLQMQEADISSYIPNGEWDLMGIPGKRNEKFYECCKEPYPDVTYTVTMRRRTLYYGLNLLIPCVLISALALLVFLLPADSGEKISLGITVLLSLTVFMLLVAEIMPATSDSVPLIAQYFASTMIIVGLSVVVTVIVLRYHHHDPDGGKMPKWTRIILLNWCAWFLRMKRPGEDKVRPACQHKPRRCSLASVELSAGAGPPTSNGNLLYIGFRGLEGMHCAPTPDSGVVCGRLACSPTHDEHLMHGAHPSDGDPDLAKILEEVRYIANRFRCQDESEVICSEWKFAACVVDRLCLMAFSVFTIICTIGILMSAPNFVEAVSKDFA
Assay Comment: biochemical
pIC50: −log10 of the molar value.
Attribute Measured: pIC50

INSERT INTO assay_data (molecule, assay_result) VALUES
  ('c1ccc2c(c1)OC1(CN3CCC1CC3)O2', 6.72),
  ('Cc1ccc2c(c1)OC1(CN3CCC1CC3)O2 (racemic)', 6.74),
  ('CC(C)(C)c1ccc2c(c1)OC1(CN3CCC1CC3)O2 (racemic)', 5.64);

* * *

Test Target: nAChRs comprised of α4 and β2 subunits (3H-cytisine binding, cerebral cortex homogenate) (Rattus norvegicus, UniProt P09483+P12390)
Sequence (P09483 31-630): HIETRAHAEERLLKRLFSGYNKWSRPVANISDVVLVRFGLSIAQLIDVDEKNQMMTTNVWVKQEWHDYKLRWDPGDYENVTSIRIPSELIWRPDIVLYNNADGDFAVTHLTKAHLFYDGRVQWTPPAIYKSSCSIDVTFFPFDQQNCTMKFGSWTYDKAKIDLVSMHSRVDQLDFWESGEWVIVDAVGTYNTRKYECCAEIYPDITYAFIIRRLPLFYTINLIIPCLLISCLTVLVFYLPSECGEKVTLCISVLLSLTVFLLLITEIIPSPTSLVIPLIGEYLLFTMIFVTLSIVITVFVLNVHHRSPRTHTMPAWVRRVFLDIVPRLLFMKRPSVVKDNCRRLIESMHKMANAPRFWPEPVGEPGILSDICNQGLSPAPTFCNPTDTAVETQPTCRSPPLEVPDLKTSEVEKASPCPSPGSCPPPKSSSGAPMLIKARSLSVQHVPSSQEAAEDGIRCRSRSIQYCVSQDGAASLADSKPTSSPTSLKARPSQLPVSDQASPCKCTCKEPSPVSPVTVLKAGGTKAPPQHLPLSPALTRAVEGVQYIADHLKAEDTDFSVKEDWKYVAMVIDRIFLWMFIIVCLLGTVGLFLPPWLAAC
Sequence (P12390 25-500): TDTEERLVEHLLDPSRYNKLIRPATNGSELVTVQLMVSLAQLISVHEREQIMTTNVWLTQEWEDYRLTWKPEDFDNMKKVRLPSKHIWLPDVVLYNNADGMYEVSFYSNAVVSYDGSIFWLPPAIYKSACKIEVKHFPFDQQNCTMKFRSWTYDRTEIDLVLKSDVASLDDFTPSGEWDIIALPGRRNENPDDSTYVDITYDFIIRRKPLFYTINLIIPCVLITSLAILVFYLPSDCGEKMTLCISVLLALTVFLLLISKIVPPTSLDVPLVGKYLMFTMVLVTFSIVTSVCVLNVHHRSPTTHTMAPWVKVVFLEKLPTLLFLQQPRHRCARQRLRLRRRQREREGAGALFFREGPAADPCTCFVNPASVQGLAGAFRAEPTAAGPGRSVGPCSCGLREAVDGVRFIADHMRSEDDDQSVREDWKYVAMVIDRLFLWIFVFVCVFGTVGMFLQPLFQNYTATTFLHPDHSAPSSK
Assay Comment: In vitro inhibition of 3H-cytisine binding
Attribute Measured: IC50

INSERT INTO results (chem_smiles, attribute_measured, assay_result) VALUES
  ('c1ccc2c(c1)OC1(CN3CCC1CC3)O2', 'IC50', '30 µM');
